Assay: physchem
Assay type: physicochemical
Details: 25 °C, pH 4, aqueous buffer, thermodynamic from solid, Solubility, water
attribute-measured: solubility (µg/mL)
Give the number; µg/mL is assumed, so skip it.

// lookup solubility for CS(=O)(=O)c1ccc(C(=O)C2C(=O)CCCC2=O)c(Cl)c1COCC(F)(F)F [crystal form A] 260

----------
Assay: physchem
Type: physicochemical
Conditions: 25 °C, organic solvent or mixture, thermodynamic from solid, Solubility, toluene
attribute-measured: solubility (mg/mL)
Give the value, in units of mg/mL, as a plain number.

Request the reported solubility associated with CS(=O)(=O)c1ccc(C(=O)C2C(=O)CCCC2=O)c(Cl)c1COCC(F)(F)F [crystal form A] 80

----------
Experiment: Dissolution rate test (suspension in methanol/water with temperature cycling, decomposition after 14 days)
Type: physicochemical
Details: suspended in methanol : water 1 : 5 (volume), 10-30° C, temperature periodically changed at 0.5K/min, 14 days later
Experimental: Further, in the present disclosure, the dissolution rate of crystal from D of tembotrione was tested as following: the crystal form D of tembotrione was suspended in a mixture of methanol and water (the volume ratio of methanol : water was 1 : 5) at a temperature of 10-30° C, and the temperature was changed at a rate of 0.5K/min. […]
attribute-measured: decomposition rate

CS(=O)(=O)c1ccc(C(=O)C2C(=O)CCCC2=O)c(Cl)c1COCC(F)(F)F [crystal form B]; 0.4%
CS(=O)(=O)c1ccc(C(=O)C2C(=O)CCCC2=O)c(Cl)c1COCC(F)(F)F [crystal form C]; 0.15%
CS(=O)(=O)c1ccc(C(=O)C2C(=O)CCCC2=O)c(Cl)c1COCC(F)(F)F [crystal form A]; 0.1%

Here's the next entry for you.
Would you kindly share the measured decomposition rate for CS(=O)(=O)c1ccc(C(=O)C2C(=O)CCCC2=O)c(Cl)c1COCC(F)(F)F [crystal form D] ? 0.06%
